PROTOCOL: In-vivo pharmacokinetic analysis of calcined metal (hydr)oxide-docetaxel compositions, single oral administration
PARTICULARS: rat, 40 mg/kg
READOUT_LABEL: Tmax (min)
The figure you give is taken to be in min; do not add the unit.

Query :: Please give the measured Tmax for this compound: CC(=O)O[C@@]12CO[C@@H]1C[C@H](O)[C@@]1(C)C(=O)[C@H](O)C3=C(C)[C@@H](OC(=O)[C@H](O)[C@@H](NC(=O)OC(C)(C)C)c4ccccc4)C[C@@](O)([C@@H](OC(=O)c4ccccc4)[C@H]21)C3(C)C [Docetaxel]
Result :: 30
